test system: HCT116 WT cells; assay: HCT116 WT cell proliferation / viability (CellTiter-Glo, 6 days); assay type: cell-based; conditions: Homo sapiens, HCT-116, 144 h, HCT116 WT cells, 6 days, CellTiter-Glo; read-out: HCT-116 WT IC50
measurement.name: log10 of IC50 (log10 of the value in µM)

- CCN(C(=O)c1cc2c3c(c(N)nc2cc1F)COC3)C(C)c1ccc(Cl)nc1 (racemic) [Example 739]: 0.35
- CCN(Cc1ccc(Cl)cn1)C(=O)c1ccc2nc(N)c3c(c2c1)COC3 [Example 701]: 0.86
- C[C@@H](c1ccc(C(F)(F)C(F)(F)F)cc1)N(C)C(=O)c1cc2c(cc1F)nc(N)c1cnn(C)c12 [Example 787]: 0.95
- CC(c1ncccn1)N(Cc1ccc(C2COC2)cc1)C(=O)c1ccc2nc(N)c3c(c2c1)COC3 (racemic) [Example 449]: 0.09
- CC1(CN(Cc2ccc(C(F)(F)F)cn2)C(=O)c2ccc3nc(N)c4c(c3c2)COC4)CC1 [Example 337]: -0.15
- C[C@@H](CF)N(Cc1ccc(C#N)cn1)C(=O)c1ccc2nc(N)c3c(c2c1)COC3 (single isomer, unassigned) [Example 578]: 0.69
- CC1OCc2c1c(N)nc1ccc(C(=O)N(Cc3ccc(C(F)(F)F)cn3)C3CC3C3CC3)cc21 (stereo not drawn) [Example 904]: 0.20
- C[C@H](c1ncc(C(F)(F)F)cc1F)N(C)C(=O)c1cc2c(cn1)nc(N)c1c2cnn1C (single isomer, unassigned) [Example 861]: 1.13
- Nc1nc2cc(F)c(C(=O)N(Cc3ccc(C(F)(F)F)cn3)c3cnn(C(F)(F)F)c3)cc2c2c1COC2 [Example 729]: -0.27
- Nc1nc2cnc(C(=O)N(Cc3ccc(OC(F)F)nn3)CC3CC3)cc2c2c1COC2 [Example 418]: 0.80
- CC1OCc2c1c(N)nc1ccc(C(=O)N(Cc3ccc(C(F)(F)F)cn3)C3CCOC3)cc21 (stereo not drawn) [Example 899]: 0.99
- CCN(Cc1ccc(C(F)(F)F)cn1)C(=O)c1cc2c3c(c(N)nc2cc1F)COC3 [Example 419]: 0.58

Source: patent US20240101570A1
